Origin of measurements: PubChem BioAssay (NCI)

Recorded TGI, one value per entry.
test system: HOP-62 NSCLC; experiment: NCI tumour cell line growth inhibition, 48 h

{"molecule": "Cc1cc2nc(N3C(=O)/C(=C/c4ccc(Cl)cc4)N=C3c3ccccc3)sc2cc1C", "TGI": "> 100 µM"}
{"molecule": "c1ccc(-c2cc(-c3cccs3)c(-c3cccs3)o2)cc1", "TGI": "> 100 µM"}
{"molecule": "CCOP(=O)(OCC)C1=NC=CC=CC1n1c(-c2ccccc2)nn(CC)c1=O (stereo unspecified)", "TGI": "> 100 µM"}
{"molecule": "OCC(O)C(O)C(O)/C=N/Nc1nc2ccccc2nc1-c1ccccc1 (stereo unspecified)", "TGI": "> 100 µM"}
{"molecule": "COc1cc2c(cc1OC)-c1cc3cc(OC)c(OC)cc3c(=O)n1CC2", "TGI": "> 72.8 µM"}
{"molecule": "O=C1c2ccccc2C(=O)c2c(O)ccc(O)c21", "TGI": "> 100 µM"}

###

system: PC-3 prostate; experiment: NCI tumour cell line growth inhibition, 48 h

{"structure-as-smiles": "Cc1nnc(-n2c(O)cc(=O)n(-c3ccccc3)c2=S)nc1/C=C/c1ccc(N(C)C)cc1", "TGI": "> 46.2 µM"}
{"structure-as-smiles": "COc1ccc2c(c1)/C(=C/c1cc(OC)c(OC)c(OC)c1)C(=O)N2C", "TGI": "> 100 µM"}
{"structure-as-smiles": "CNCCCNCCCN1C(=O)c2ccc3c4c(ccc(c24)C1=O)C(=O)N(CCCNCc1ccccc1OC)C3=O", "TGI": "10.1 µM"}

###

tested on: HOP-62 NSCLC; assay: NCI tumour cell line growth inhibition, 48 h; in the data active means GI50 below about 0.43 µM; inactive means the rest
Outcome codes: active, inactive

{"structure-as-smiles": "COc1ccc(N(/C=C/C(=O)C(F)(F)F)CC(=O)c2ccc(Cl)c(Cl)c2)cc1", "qualitative-label": "inactive"}
{"structure-as-smiles": "C1=Nc2ccccc2C=Nc2ccccc2C=Nc2ccccc2C=Nc2ccccc21.[Cl-].[Pt+2]", "qualitative-label": "inactive"}
{"structure-as-smiles": "Cc1ccc(Sc2sc(-c3ccccc3)nc2[P+](c2ccccc2)(c2ccccc2)c2ccccc2)cc1", "qualitative-label": "active"}
{"structure-as-smiles": "Oc1ccc(C#CCOc2ccccc2)cc1CNCCN(Cc1ccccn1)Cc1ccccn1", "qualitative-label": "inactive"}
{"structure-as-smiles": "COc1ccc2c(c1)/C(=C/c1cc(OC)c(OC)c(OC)c1)C(=O)N2C", "qualitative-label": "inactive"}
{"structure-as-smiles": "CCOC(=O)c1cc(C(=O)c2cc(OC)c(OC)c(OC)c2)n2ccccc12", "qualitative-label": "active"}

###

tested on: SF-539 CNS; test: NCI tumour cell line growth inhibition, 48 h
readout-type: TGI

{"structure-as-smiles": "COc1cc(Nc2nc3ccc(C(F)(F)F)cc3nc2-c2ccccc2)cc(OC)c1OC", "observed": "> 100 µM"}
{"structure-as-smiles": "NNC(=O)/C(NC(=O)c1ccccc1)=C(\\N)c1ccc(Cl)cc1", "observed": "> 100 µM"}
{"structure-as-smiles": "Cc1nc(C(N)=S)sc1C(=O)C/C(=N/N)C(=O)Nc1ccc(Cl)cc1", "observed": "> 100 µM"}
{"structure-as-smiles": "COc1ccc(OC)c2c(=S)c3ccccc3[nH]c12", "observed": "> 100 µM"}
{"structure-as-smiles": "Cc1[nH]nc2c1N=C(c1ccccc1Cl)c1cc([N+](=O)[O-])ccc1N2", "observed": "> 5.27 µM"}

###

Recorded GI50, one value per entry.
system: SK-OV-3 ovarian; assay: NCI tumour cell line growth inhibition, 48 h
readout-type: GI50

{"compound": "NC1CCC(N[C@@H]2C[C@H]2c2ccccc2)CC1 (stereo not given in full)", "observed": "> 100 µM"}
{"compound": "N#C/C(=C\\c1ccc(Br)cc1)n1nnc2ccccc21", "observed": "5.11 µM"}
{"compound": "COc1ccccc1/C=C/C(=O)/C=C/c1ccccc1OC", "observed": "2.94 µM"}
{"compound": "O=C1CCS/C(=N\\S(=O)(=O)c2ccc(N3N=C4c5ccccc5CC4C3c3cccs3)cc2)N1C(=O)c1ccccc1 (stereo not given)", "observed": "52.8 µM"}
{"compound": "CC(C)Nc1ncc2cc(Oc3ccc(F)cc3F)c(=O)n(C)c2n1", "observed": "> 25 µM"}

###

test system: MOLT-4 leukemia; assay: NCI tumour cell line growth inhibition, 48 h

{"compound": "CC(=O)OC1Oc2ccccc2-c2oc(=O)c(-c3cc4ccccc4oc3=O)cc21 (stereo not drawn)", "GI50": "25.4 µM"}
{"compound": "CCCN(CCSSCCNc1nc(N(C)O)nc(N(C)O)n1)c1nc(N(C)O)nc(N(C)O)n1", "GI50": "3.72 µM"}
{"compound": "C=C1C(=O)O[C@H]2[C@H]1CC/C(Cn1cc(-c3cc(C)c(C)cc3C)nn1)=C\\CC[C@@]1(C)O[C@@H]21", "GI50": "2.38 µM"}

###

tested on: U251 CNS
Outcome codes: Yes = active, No = inactive

{"structure-as-smiles": "Cn1c(=O)c(Oc2ccccc2)cc2cnc(NC3CCOCC3)nc21", "qualitative-label": "No"}
{"structure-as-smiles": "CCNCCCn1c2c(c3ccc([N+](=O)[O-])cc3c1=O)C(=O)c1cc(OC)cnc1-2", "qualitative-label": "Yes"}
{"structure-as-smiles": "C1COCCOCCOCCOCCO1.CC(=O)[CH-]C(C)=O.CC(=O)[CH-]C(C)=O.CC(=O)[CH-]C(C)=O.[V]", "qualitative-label": "No"}

###

Recorded TGI, one value per entry.
system: NCI-H522 lung; experiment: NCI tumour cell line growth inhibition, 48 h

{"molecule": "O=C1c2ccccc2C(=O)c2c(O)ccc(O)c21", "TGI": "> 100 µM"}
{"molecule": "CC(Cc1ccccc1)NC1=NCCO1 (stereo not drawn)", "TGI": "> 100 µM"}
{"molecule": "C=C(C)[C@@H]1CCC2=C[C@H](CC(C)=CC3=CC(C)=C(O3)[C@@H]1OC)OC2=O", "TGI": "> 100 µM"}

###

system: MDA-MB-435; experiment: NCI tumour cell line growth inhibition, 48 h
Recorded TGI, one value per entry.
readout-type: TGI (µM)

{"molecule": "NS(=O)(=O)c1nnc(NS(=O)(=O)c2ccccc2C(=O)O)s1", "readout-type": "TGI", "relation": ">", "observed": 100}
{"molecule": "Clc1nc(Cl)c(CBr)c(Cl)n1", "readout-type": "TGI", "relation": "=", "observed": 17}
{"molecule": "Clc1c(C(Cl)(Cl)Cl)nsc1N1CCCCC1", "readout-type": "TGI", "relation": "=", "observed": 66.1}
{"molecule": "CC(=O)O[C@H]1[C@@H](OC(C)=O)C(C)(C)/C=C/[C@H](C)C(=O)[C@@]2(OC(C)=O)C[C@@](C)(OC(C)=O)[C@H](OC(C)=O)[C@@H]2[C@H]2OC(=O)CC[C@@]2(OC(=O)c2ccccc2)[C@@H]1OCC(C)C", "readout-type": "TGI", "relation": ">", "observed": 100}
{"molecule": "C#CCn1c(=O)c(Cl)cn(/C(=C/C(=O)OCC)C(=O)OCC)c1=O", "readout-type": "TGI", "relation": "=", "observed": 35.8}
{"molecule": "Cc1nc(C(N)=S)sc1C(=O)C/C(=N/N)C(=O)Nc1ccc(Cl)cc1", "readout-type": "TGI", "relation": ">", "observed": 100}
{"molecule": "O=C1C(NCCN2CCOCC2)=C(Cl)C(=O)c2ncccc21", "readout-type": "TGI", "relation": "=", "observed": 0.343}
{"molecule": "OCc1ccc(N(CCN2CCCC2)Cc2ccc(F)cc2)cc1Cl", "readout-type": "TGI", "relation": "=", "observed": 32.8}
{"molecule": "N#Cc1c(N)nc(N2CCOCC2)c(C#N)c1-c1ccccc1Cl", "readout-type": "TGI", "relation": ">", "observed": 100}
{"molecule": "O=C(CC1C=CCS1(=O)=O)NCc1ccccc1 (stereo not drawn)", "readout-type": "TGI", "relation": ">", "observed": 100}
{"molecule": "CC(=O)Oc1ccc(/C=C/C(=O)O[C@H]2CCCC[C@@H]2OC(=O)/C=C/c2ccc(OC(C)=O)c(OC(C)=O)c2)cc1OC(C)=O", "readout-type": "TGI", "relation": "=", "observed": 32.7}
{"molecule": "CCOC(=O)Nc1nc2c(C)cccc2s1", "readout-type": "TGI", "relation": ">", "observed": 100}
{"molecule": "NC1CCC(N[C@@H]2C[C@H]2c2ccccc2)CC1 (stereo partly drawn)", "readout-type": "TGI", "relation": ">", "observed": 100}
{"molecule": "COc1ccc2c(c1)C1(C(=O)N2)C(C#N)=C(c2ccccc2)Nc2c1c(-c1ccccc1)nn2-c1ccccc1 (stereo not drawn)", "readout-type": "TGI", "relation": "=", "observed": 5.29}
{"molecule": "CN1CCN(c2ccc(C(=O)Nc3cc(-c4cccc(NS(=O)(=O)c5ccccc5)c4)[nH]n3)cc2)CC1", "readout-type": "TGI", "relation": "=", "observed": 22.3}
{"molecule": "Clc1ncc(Cl)c(Cl)n1", "readout-type": "TGI", "relation": "=", "observed": 7.52}
{"molecule": "C=C(C)[C@@H]1CCC2=C[C@H](CC(C)=CC3=CC(C)=C(O3)[C@@H]1OC)OC2=O", "readout-type": "TGI", "relation": ">", "observed": 100}
{"molecule": "COc1ccc(N(C)c2c3ccccc3nc3[nH]c4ccccc4c23)cc1", "readout-type": "TGI", "relation": "=", "observed": 3.22}
